Experiment: Oral bioavailability in Wistar rat at 3 mg/kg
Assay type: ADME, organism-based
Conditions: in vivo
measure-name: bioavailability (%)
Please reply with the bare figure in % and do not write the unit itself.

Qu. Form field: reported bioavailability of Cc1csc(NC(=O)c2cc(Sc3nncn3C)ccc2N)n1
Ans. 100

###

Can you tell me EC50 for the items I'm about to list?
Please reply with the bare figure in µM and do not write the unit itself.

Qu. What is its EC50 for Hexokinase-4 (Homo sapiens, UniProt P35557)? Entry: Cn1cnnc1Sc1ccc(N)c(C(=O)Nc2ccccn2)c1
Ans. 0.23

Qu. What is its EC50 for Hexokinase-4 (Homo sapiens, UniProt P35557)? Entry: Cn1cnnc1Sc1ccc(N)c(C(=O)Nc2nc(CO)cs2)c1
Ans. 0.42

Qu. What is its EC50 for Hexokinase-4 (Homo sapiens, UniProt P35557)? Entry: Cc1csc(NC(=O)c2cc(Oc3ccccc3S(C)(=O)=O)ccc2N)n1
Ans. 0.13

Qu. What is its EC50 for Hexokinase-4 (Homo sapiens, UniProt P35557)? Entry: Cc1csc(NC(=O)c2cc(Oc3cccc(F)c3)ccc2N)n1
Ans. 0.14

Qu. What is its EC50 for Hexokinase-4 (Homo sapiens, UniProt P35557)? Entry: Cn1cnnc1Sc1ccc(N)c(C(=O)Nc2nc(C(F)(F)F)cs2)c1
Ans. 0.93

Qu. What is its EC50 for Hexokinase-4 (Homo sapiens, UniProt P35557)? Entry: Cc1csc(NC(=O)c2cc(Oc3ccccc3F)ccc2N)n1
Ans. 0.1
